assay.text: A673 Ewing sarcoma viability loss – cell-based, CellTiter-Glo luminescence, cherry-pick retest, confirmation (AID 720587)
measurement.parameters: A673 Ewing sarcoma viability, CellTiter-Glo ATP luminescence, 72 h; at 26 µM (top of the series)
readout.type: activity change, negative = cytotoxicity (%)
Write down the numeric answer in % and omit the unit.

Completed entries (count: 9):
# cpd.smiles, readout.type, value.units, assay.result
rows = [
    ("O=C1Nc2ccccc2C1=Nc1ccccc1-c1ccccc1", "activity change, negative = cytotoxicity", "%", -7.56),
    ("Nc1ccc(-c2cc3ccccc3c(=O)o2)cc1", "activity change, negative = cytotoxicity", "%", -2.08),
    ("Nc1ccc2oc(-c3cc(Br)ccc3Cl)nc2c1", "activity change, negative = cytotoxicity", "%", 2.05),
    ("COc1cc(/C=N/NS(=O)(=O)c2ccc(C)cc2)ccc1OCc1cccc(C(=O)O)c1", "activity change, negative = cytotoxicity", "%", -3.14),
    ("C/C(=N\\N(c1ccccc1)c1ccccc1)c1ccco1", "activity change, negative = cytotoxicity", "%", -1.2),
    ("CCNC(=O)[C@@H]1[C@@H](CO)[C@@H]2Cn3c(ccc(C4=CCCCC4)c3=O)[C@H]1N2CC", "activity change, negative = cytotoxicity", "%", -1.43),
    ("O=C(O)c1ccc(N/N=C/c2c[nH]c3ccccc23)cc1", "activity change, negative = cytotoxicity", "%", -1.6),
    ("O=C(C[C@@H]1CC[C@@H]2[C@H](COC[C@@H](O)CN2S(=O)(=O)c2ccc(F)cc2)O1)NCc1ccc(Cl)c(Cl)c1", "activity change, negative = cytotoxicity", "%", 8.17),
    ("Cc1c(-c2nc(-c3ccc(C(C)(C)C)cc3)no2)n(C)oc1=O", "activity change, negative = cytotoxicity", "%", 2.17),
]

Summary for this compound, `CCCn1c(C)cc(C(=O)CN2C(=O)c3ccccc3S2(=O)=O)c1C` : activity change, negative = cytotoxicity is 11.3

---

assay.text: A673 Ewing sarcoma viability loss – cell-based, CellTiter-Glo luminescence, cherry-pick retest, confirmation (AID 720587)
measurement.parameters: A673 Ewing sarcoma viability, CellTiter-Glo ATP luminescence, 72 h; at 26 µM (top of the series)
readout.type: activity change, negative = cytotoxicity (%)
Write down the numeric answer in % and omit the unit.

# molecule, activity change, negative = cytotoxicity / %
data = [
    ("N/C(Cc1nc(-c2ccc(F)cc2)cs1)=N\\O", -2.03),
]

Summary for this molecule, `O=C(Nc1cccc(Oc2ccc3c(c2)C(=O)NC3=O)c1)c1cccs1` : activity change, negative = cytotoxicity is -6.77

Summary for this molecule, `CC(=O)c1ccc(NC(=O)c2noc3c2CCC3)cc1` : activity change, negative = cytotoxicity is -3.66

Summary for this molecule, `CCCn1nnc(NC(=S)NC(=O)C(C)(C)C)n1` : activity change, negative = cytotoxicity is -3.83

Summary for this molecule, `CCc1ccc(/C=C2\SC(=S)N(CCCC(=O)NC3=NCCS3)C2=O)cc1` : activity change, negative = cytotoxicity is 1.62

Summary for this molecule, `Cc1ccccc1N=CC1=C(O)c2ccccc2C1=O` : activity change, negative = cytotoxicity is -6.09

Summary for this molecule, `CC(C)CN(C(=O)CN1CCOCC1)c1c(N)n(CC(C)C)c(=O)[nH]c1=O` : activity change, negative = cytotoxicity is -1.6

---

assay.text: A673 Ewing sarcoma viability loss – cell-based, CellTiter-Glo luminescence, cherry-pick retest, confirmation (AID 720587)
measurement.parameters: A673 Ewing sarcoma viability, CellTiter-Glo ATP luminescence, 72 h; at 26 µM (top of the series)
Parameter: activity change, negative = cytotoxicity. Scope: all listed entries.
Write down the numeric answer in % and omit the unit.

Completed entries (count: 3):
# molecule, activity change, negative = cytotoxicity [%]
data = [
    ("C[C@@H]1CCCCO[C@@H](CN(C)C(=O)Cc2ccccc2)[C@@H](C)CN([C@@H](C)CO)C(=O)c2cc(NS(=O)(=O)c3ccc(F)cc3)ccc2O1", 7.89),
    ("C/C(=N\\OCc1cccc(C(=O)O)c1)c1ccc(Cl)cc1", -3.02),
    ("N#C[C@@H]1[C@H](c2ccc(C#Cc3ccccc3F)cc2)[C@@H](CO)N1C(=O)c1cccnc1", 1.54),
]

Let's switch to this molecule now.
Summary for this molecule, `CN(C)c1ccc(N=Nc2ccc(C(=O)O)cc2)cc1` : activity change, negative = cytotoxicity is 1.5

---

assay.text: A673 Ewing sarcoma viability loss – cell-based, CellTiter-Glo luminescence, cherry-pick retest, confirmation (AID 720587)
measurement.parameters: A673 Ewing sarcoma viability, CellTiter-Glo ATP luminescence, 72 h; at 26 µM (top of the series)
readout.type: activity change, negative = cytotoxicity (%)
Write down the numeric answer in % and omit the unit.

Completed entries (count: 8):
# compound, assay.result
measured = [
    ("O=C(CNC(c1ccccc1)c1ccccc1)Nc1ccccc1-c1ccccc1", -1.93),
    ("CC(Oc1cccc(Cl)c1)C(=O)NCCCCc1ccccc1 (stereo not given)", 3.26),
    ("C[C@H]1CN([C@@H](C)CO)C(=O)c2cc(NS(=O)(=O)c3ccc(Cl)cc3)ccc2O[C@H]1CN(C)Cc1ccc(Cl)c(Cl)c1", 4.93),
    ("CC(=O)Nc1ccc(OCC(=O)N(CC(C)C)C2CCS(=O)(=O)C2)cc1 (stereo not given)", 8.05),
    ("O=c1c2ccccc2oc2ccc(C#CC3(O)CCCCC3)cc12", 1.29),
    ("COc1ccccc1NS(=O)(=O)c1cc(NC(=O)c2cc3ccccc3oc2=O)ccc1C", 13),
    ("COc1ccc(CCC(C)NCC2CCCCC2)cc1 (stereo not given)", 2.42),
    ("Cc1ccc2oc(/N=C(\\N)NC(=O)C(C)(C)C)nc2c1", -3.45),
]

Summary for this compound, CCOC(=O)C1CCCCN1C(=O)CCc1c(C)nc2cc(-c3ccccc3)nn2c1C (stereo not given) : activity change, negative = cytotoxicity is -3.12

Summary for this compound, `Cc1ccc(/C=N/Nc2ccc3ccccc3n2)o1` : activity change, negative = cytotoxicity is -3.75

---

Parameter: activity change, negative = cytotoxicity. Scope: all listed entries.
assay.text: A673 Ewing sarcoma viability loss – cell-based, CellTiter-Glo luminescence, cherry-pick retest, confirmation (AID 720587)
measurement.parameters: A673 Ewing sarcoma viability, CellTiter-Glo ATP luminescence, 72 h; at 26 µM (top of the series)
Write down the numeric answer in % and omit the unit.

Completed entries (count: 4):
# cpd.smiles, activity change, negative = cytotoxicity (%)
measured = [
    ("CC(C)c1ccccc1NC(=O)COC(=O)CCN1C(=O)/C(=C\\C=C\\c2ccccc2)SC1=S", -0.202),
    ("COc1cc(C(c2c(C)[nH][nH]c2=O)c2c(C)[nH][nH]c2=O)ccc1OC(C)C", -4.73),
    ("C[C@@H]1CN([C@@H](C)CO)C(=O)c2cccc(NC(=O)Nc3ccccc3)c2O[C@@H]1CN(C)Cc1ccc(-c2ccccc2)cc1", -1.33),
    ("Cc1ccsc1C(=O)OCC(=O)c1cc(C)n(C)c1C", -0.814),
]

Summary for this molecule, `Cc1[nH]c(=S)sc1Cc1ccc(Cl)c(Cl)c1` : activity change, negative = cytotoxicity is 5.33

---

assay.text: A673 Ewing sarcoma viability loss – cell-based, CellTiter-Glo luminescence, cherry-pick retest, confirmation (AID 720587)
measurement.parameters: A673 Ewing sarcoma viability, CellTiter-Glo ATP luminescence, 72 h; at 26 µM (top of the series)
Parameter: activity change, negative = cytotoxicity. Scope: all listed entries.
Write down the numeric answer in % and omit the unit.

Summary for this compound, `CCOc1ccc(/C=C2\CCc3ccccc3C2=O)cc1` : activity change, negative = cytotoxicity is -1.55

---

Parameter: activity change, negative = cytotoxicity. Scope: all listed entries.
assay.text: A673 Ewing sarcoma viability loss – cell-based, CellTiter-Glo luminescence, cherry-pick retest, confirmation (AID 720587)
measurement.parameters: A673 Ewing sarcoma viability, CellTiter-Glo ATP luminescence, 72 h; at 26 µM (top of the series)
Write down the numeric answer in % and omit the unit.

Completed entries (count: 4):
# compound, value.units, activity change, negative = cytotoxicity
rows = [
    ("CCc1ccc(/C=C2\\SC(=S)N(CCC(=O)Nc3cc(C)on3)C2=O)cc1", "%", 6.27),
    ("COc1cc(OC)cc(-c2cc3nc(C)c(CCC(=O)NCc4ccccc4)c(C)n3n2)c1", "%", 6.68),
    ("Nc1ccc(Oc2ccccc2-c2ccccc2)cc1", "%", -6.58),
    ("CCC(C)Cn1c(O)cc2nn(-c3nc4ccccc4s3)c(=O)c-2c1C (configuration not stated)", "%", -13.1),
]

Let's switch to this compound now.
Summary for this compound, `Cc1ccc(S(=O)(=O)N(C)C[C@H]2Oc3c(cccc3N(C)C)C(=O)N([C@@H](C)CO)C[C@@H]2C)cc1` : activity change, negative = cytotoxicity is -1.85
